Data credit: patent US20250154261A1

kon by entry:
target: Human CD33 S128N (human, UniProt P20138 18-259); assay: SPR captured Fab
Sequence (P20138 18-259 S128N): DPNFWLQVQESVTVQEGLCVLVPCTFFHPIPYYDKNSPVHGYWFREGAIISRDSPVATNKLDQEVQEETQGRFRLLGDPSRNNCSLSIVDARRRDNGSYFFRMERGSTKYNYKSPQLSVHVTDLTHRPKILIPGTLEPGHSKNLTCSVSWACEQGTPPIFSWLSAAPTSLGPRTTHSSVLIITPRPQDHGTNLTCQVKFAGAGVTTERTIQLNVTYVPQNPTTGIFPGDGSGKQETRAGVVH
reported metric: kon (M⁻¹ s⁻¹)

[[record]]
binder = "ADI-10161 Fab (Fab, V domains shown, Fab fragment; also called Ab16) VH: EVQLVESGGGLVQPGGSLRLSCAASGFTFSSYWMSWVRQAPGKGLEWVANINQDGSEKYYVDSVKGRFTISRDNAKNSLYLQMNSLRAEDTAVYYCAREGGDSWYHAFDIWGQGTMVTVSS VL: DIQMTQSPSSVSASVGDRVTITCRASQGISSWLAWYQQKPGKAPKLLIYAASNLQSGVPSRFSGSGSGTDFTLTISSLQPEDFATYYCQQKLSLPLTFGGGTKVEIK"
reported_metric = "kon"
meas_value = 605000

[[record]]
binder = "ADI-10164 Fab (Fab, V domains shown, Fab fragment; also called Ab18) VH: QVQLQESGPGLVKPSETLSLTCAVSGYSISSGYYWGWIRQPPGKGLEWIGSIYHSGSTNYNPSLKSRVTISVDTSKNQFSLKLSSVTAADTAVYYCARLPPWFGFSYFDLWGRGTLVTVSS VL: EIVLTQSPATLSLSPGERATLSCRASQSVSSYLAWYQQKPGQAPRLLIYDASNRATGIPARFSGSGSGTDFTLTISSLEPEDFAVYYCQQVDNYPPTFGGGTKVEIK"
reported_metric = "kon"
meas_value = 193000

[[record]]
binder = "ADI-11839 Fab (Fab, V domains shown, Fab fragment; also called Ab28) VH: QVQLVQSGAEVKKPGASVKVSCKASGYTFSNYYMHWVRQAPGQGLEWMGWINPFSGGTRYAQKFQGRVTMTRDTSTSTVYMELSSLRSEDTAVYYCARDVGSSAYYYMDVWGKGTTVTVSS VL: DIQMTQSPSSVSASVGDRVTITCEASKGISSWLAWYQQKPGKAPKLLIYAASDLQSGVPSRFSGSGSGTDFTLTISSLQPEDFATYYCQQAFLFPPTFGGGTKVEIK"
reported_metric = "kon"
meas_value = 963000

